test: Human pregnane X receptor (PXR) small molecule agonists, qHTS cell viability counter screen (AID 1346977); settings: PXR-Luc HepG2 viability, CellTiter-Fluor, 24 h; series mostly up to 92.4 µM; also: nearly all actives have a fitted effect of over 50% in size
Records with an inconclusive call do not appear. The source made the active and inactive calls. Calls follow the shape of the dose curve; as a rule, active = well fitted cell-killing curve with a large enough effect in the repeat runs; inconclusive = weak or mixed curves, or effect the other way; inactive = flat fitted curve, though single readings scatter.
Write down the outcome that applies. Available outcomes: Yes = active, No = inactive

Some solved entries appear below for comparison.
molecule: O=C1NC(=O)C(=O)C(=O)N1
discrete-label: No
//
molecule: CCCCOC(=O)CCC(=O)OCCCC
discrete-label: No
//
molecule: NP(N)(=O)NC(=O)c1ccc(F)cc1
discrete-label: No
//
molecule: CC(C)(C)CC(C)(C)c1ccc(O)cc1
discrete-label: Yes
//
molecule: CCCCCCCCCCCC[N+](C)(C)CCOc1ccccc1
discrete-label: Yes
//
molecule: C=CCc1ccc(OC(=O)Cc2ccccc2)c(OC)c1
discrete-label: No

Kindly provide the recorded test outcome for the following molecule: CCCN(CCC)c1c([N+](=O)[O-])cc(C(C)C)cc1[N+](=O)[O-]
No

Kindly provide the recorded test outcome for the following molecule: COC(=O)C1(O)c2ccccc2-c2ccccc21
No

Kindly provide the recorded test outcome for the following molecule: COC(=O)Cc1ccccc1
No

Kindly provide the recorded test outcome for the following molecule: CCCN(CCOc1c(Cl)cc(Cl)cc1Cl)C(=O)n1ccnc1
Yes

----------
test: qHTS assay to identify small molecule agonists of the sonic hedgehog signaling (Shh) pathway (AID 1259368); settings: NIH/3T3 Gli1-Luc reporter, luciferase, 24 h; series mostly up to 92.4 µM;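 also: NIH/3T3-derived 3T3Gli1-Luc cells carrying a stable Gli1-driven firefly luciferase reporter; nearly all actives have a fitted effect of over 15% in size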
Activity calls are given as the source filed them. Calls come from the whole dose curve.

substance-smiles: CCOC(=O)c1cn2nc(OP(=S)(OCC)OCC)cc2nc1C
activity change: inactive
--
substance-smiles: NC(=O)CF
activity change: inactive
--
substance-smiles: CC(C)CCON=O
activity change: inactive

----------
test: qHTS assay to identify small molecule agonists of the retinoic acid receptor (RAR) signaling pathway (AID 1159553); settings: C3RL4 RARE luciferase reporter, agonist, 6 h; series mostly up to 73.3 µM
Inconclusive results are not listed. Calls of active or inactive are those of the source. Calls come from the whole dose curve; as a rule, active = well fitted activation curve with a large enough effect in the repeat runs; inconclusive = weak or mixed curves, or effect the other way; inactive = no such curve, though single readings can be large or run the other way.
Write down the outcome that applies. Available outcomes: active, inactive

Some solved entries appear below for comparison.
compound: C1CCNCC1
discrete-label: inactive
--
compound: O=C(O)C(F)(F)C(F)(F)C(F)(F)C(F)(F)C(F)(F)F
discrete-label: inactive
--
compound: CCC(C)Cl (stereo not given)
discrete-label: inactive
--
compound: FC(F)OC(F)(F)C(F)Cl (stereo not given)
discrete-label: inactive
--
compound: C[N+](C)(C)CC1CO1 (stereo not given)
discrete-label: inactive

Kindly provide the recorded test outcome for the following compound: CCCC[N+](CCCC)(CCCC)CCCC
inactive

Kindly provide the recorded test outcome for the following compound: CN[C@@H](C)[C@H](O)c1ccccc1
inactive

Kindly provide the recorded test outcome for the following compound: CN(C)N
inactive

Kindly provide the recorded test outcome for the following compound: CCC1CCC(=O)O1 (stereo not given)
inactive

Kindly provide the recorded test outcome for the following compound: CC(Cl)C(=O)O (stereo not given)
inactive

Kindly provide the recorded test outcome for the following compound: O=S(=O)(Cl)Cl
inactive

Kindly provide the recorded test outcome for the following compound: CN1C(=O)CN=C(c2ccccc2)c2cc([N+](=O)[O-])ccc21
inactive

Kindly provide the recorded test outcome for the following compound: O=C=NC1CCCCC1
active

Kindly provide the recorded test outcome for the following compound: COCc1cnc(C2=NC(C)(C(C)C)C(=O)N2)c(C(=O)O)c1 (stereo not given)
inactive

Kindly provide the recorded test outcome for the following compound: CCOC(C(=O)OCCN(C)C)(c1ccccc1)c1ccccc1
inactive

----------
experiment: qHTS assay to identify small molecule antagonists of the estrogen receptor beta (ER-beta) signaling pathway - cell viability counter screen (AID 1259382); details: ER-beta-UAS-bla HEK293T viability, CellTiter-Glo luminescence, 16 h; series mostly up to 92.4 µM;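 also: HEK293T cells carrying ER-beta-UAS-bla reporter stimulated with estradiol; nearly all actives have a fitted effect of over 55% in size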
Results filed as inconclusive are left out. Activity calls are given as the source filed them. Calls come from the whole dose curve; as a rule, active = well fitted cell-killing curve with a large enough effect in the repeat runs; inconclusive = weak or mixed curves; inactive = flat fitted curve, though single readings scatter.
experimental-endpoint: activity change, negative = cytotoxicity

Worked cases, activity change, negative = cytotoxicity given:
compound: C=CCc1ccccc1O
activity change, negative = cytotoxicity: inactive

compound: C=CCSSCC=C
activity change, negative = cytotoxicity: inactive

compound: CC(Cc1ccccc1)NCc1ccccc1Cl (stereo not given)
activity change, negative = cytotoxicity: inactive

compound: Nc1cc(Cl)cc(C(=O)O)c1Cl
activity change, negative = cytotoxicity: inactive

Value sought for every listed compound: activity change, negative = cytotoxicity.
1. COP(=O)(OC)OC(Br)C(Cl)(Cl)Br (stereo not given)
2. CC[N+]1(CCOC(=O)C(O)(c2ccccc2)c2ccccc2)CCCCC1
3. COc1ccc(C(O)(c2cncnc2)C2CC2)cc1 (stereo not given)
4. O=[N+]([O-])O[C@H]1CO[C@H]2[C@@H]1OC[C@H]2O[N+](=O)[O-]

1: inactive; 2: inactive; 3: inactive; 4: inactive

----------
molecular target: Estrogen receptor (Homo sapiens); experiment: qHTS assay to identify small molecule agonists of the estrogen receptor alpha (ER-alpha) signaling pathway in the presence of an antagonist (AID 1259383); conditions: VM7Luc4E2 cells, ERE-luciferase, +ICI-182,780, 22 h; series mostly up to 92.4 µM; also: top concentration of the series differs between compounds; nearly all actives have a fitted effect of over 15% in size
Calls of active or inactive are those of the source. Calls follow the shape of the full dose curve.
Write down the outcome that applies. Available outcomes: active, inactive

Some solved entries appear below for comparison.
compound: CCCCCCCCCCCC[N+](C)(C)CCOc1ccccc1
discrete-label: inactive

compound: C=CC(=O)OCC
discrete-label: inactive

compound: CCCBr
discrete-label: inactive

compound: c1ccc2sc(SNC3CCCCC3)nc2c1
discrete-label: inactive

compound: CC(C)c1ccc(OP(=O)(Oc2ccc(C(C)C)cc2)Oc2ccc(C(C)C)cc2)cc1
discrete-label: inactive

Kindly provide the recorded test outcome for the following compound: Nc1ccccc1C(=O)OCC(O)CO (stereo not drawn)
inactive

Kindly provide the recorded test outcome for the following compound: CN(C)c1ccc(N=O)cc1
inactive

Kindly provide the recorded test outcome for the following compound: O=C(Cl)OCCOCCOC(=O)Cl
inactive

Kindly provide the recorded test outcome for the following compound: CC(C)(C)c1ccc(CCOc2ncnc3ccccc23)cc1
inactive

Kindly provide the recorded test outcome for the following compound: CCCCC(CC)CO[N+](=O)[O-] (stereo not drawn)
inactive

Kindly provide the recorded test outcome for the following compound: Cc1nc(N(C)C)nc(OC(=O)N(C)C)c1C
inactive

Kindly provide the recorded test outcome for the following compound: CCCCC#N
inactive

----------
assay: qHTS RealTime-Glo MT Cell Viability Assay in HepG2 cells - 16 hour (AID 1224885); settings: RealTime-Glo luminescence; series mostly up to 76.8 µM; also: nearly all actives have a fitted effect of over 50% in size
Results filed as inconclusive are left out. Active and inactive are the calls of the source. Calls follow the shape of the dose curve; as a rule, active = well fitted cell-killing curve with a large enough effect in the repeat runs; inconclusive = weak or mixed curves; inactive = flat fitted curve, though single readings scatter.
Write down the outcome that applies. Available outcomes: TRUE (active), FALSE (inactive)

Some solved entries appear below for comparison.
compound: O=C1c2ccccc2C(=O)N1SC(Cl)(Cl)Cl
discrete-label: TRUE

compound: CCCN(CCC)c1c([N+](=O)[O-])cc(C(C)C)cc1[N+](=O)[O-]
discrete-label: FALSE

compound: CCCC(C)(COC(N)=O)COC(=O)NC(C)C (stereo unspecified)
discrete-label: FALSE

Kindly provide the recorded test outcome for the following compound: CC(C)CCON=O
FALSE

Kindly provide the recorded test outcome for the following compound: CCCCCl
FALSE

Kindly provide the recorded test outcome for the following compound: O=C(O)C(Cl)(Cl)Br
FALSE

Kindly provide the recorded test outcome for the following compound: CN(C)N
FALSE

Kindly provide the recorded test outcome for the following compound: CCCBr
FALSE

Kindly provide the recorded test outcome for the following compound: CC(Cc1ccccc1)NCc1ccccc1Cl (stereo unspecified)
FALSE

Kindly provide the recorded test outcome for the following compound: O=S(=O)(Cl)Cl
FALSE

Kindly provide the recorded test outcome for the following compound: CCCC1CCCCN1 (stereo unspecified)
FALSE

Kindly provide the recorded test outcome for the following compound: Cc1cnc(C2=NC(C)(C(C)C)C(=O)N2)c(C(=O)O)c1 (stereo unspecified)
FALSE

Kindly provide the recorded test outcome for the following compound: O=C(CCl)CCl
FALSE

Kindly provide the recorded test outcome for the following compound: Cc1cccc(C)c1NC1=NCCCS1
FALSE

Kindly provide the recorded test outcome for the following compound: CCOP(=O)(SC(C)CC)N1CCSC1=O (stereo unspecified)
FALSE

Kindly provide the recorded test outcome for the following compound: CCc1cnc(C2=NC(C)(C(C)C)C(=O)N2)c(C(=O)O)c1 (stereo unspecified)
FALSE

----------
assay: qHTS RealTime-Glo MT Cell Viability Assay in HEK293 cells - 8 hour (AID 1224887); conditions: RealTime-Glo luminescence; series mostly up to 76.8 µM; also: nearly all actives have a fitted effect of over 50% in size
Inconclusive results are not listed. Activity calls are given as the source filed them. Calls come from the whole dose curve; as a rule, active = well fitted cell-killing curve with a large enough effect in the repeat runs; inconclusive = weak or mixed curves, or effect the other way; inactive = flat fitted curve, though single readings scatter.
Write down the outcome that applies. Available outcomes: Yes = active, No = inactive

Some solved entries appear below for comparison.
compound: Cc1nc2ccccc2c(=O)n1-c1ccccc1Cl
discrete-label: Yes

compound: CCCN(CCC)c1c([N+](=O)[O-])cc(C(C)C)cc1[N+](=O)[O-]
discrete-label: No

compound: Nc1cccc2ccccc12
discrete-label: No

compound: Cc1ccccc1
discrete-label: No

compound: OCCSSCCO
discrete-label: No

compound: C=CC(=O)OCC
discrete-label: No

compound: CC(C)(C#N)C(C)(C)C#N
discrete-label: No

compound: O=C(Cc1ccccc1)c1ccccc1
discrete-label: No

compound: N#CC(C#N)=Cc1ccc(O)c(O)c1
discrete-label: No

compound: O=C(N[C@H]1CN2CCC1CC2)c1ccc2c(c1)OCCO2
discrete-label: No

Kindly provide the recorded test outcome for the following compound: C=CCN1C[C@H](C)N([C@H](c2ccc(C(=O)N(CC)CC)cc2)c2cccc(OC)c2)C[C@H]1C
No

Kindly provide the recorded test outcome for the following compound: COC(=O)C1(O)c2ccccc2-c2ccccc21
No

Kindly provide the recorded test outcome for the following compound: C1CS1
No

Kindly provide the recorded test outcome for the following compound: CCC(C)(C)O
No
